Entry source: patent US20240309087A1

# IC50 per entry
Molecular target: T1, hCD112R mFC recombinant protein (human; murine, UniProt Q6DKI7 41-160)
T1 construct: range 41-160; expressed in 293E cells; also called hCD112R ECD mFC; hCD112R-ECD-mFC; not shown: murine IgG2a Fc domain (MX2-mFc vector)
T1 sequence (looked up): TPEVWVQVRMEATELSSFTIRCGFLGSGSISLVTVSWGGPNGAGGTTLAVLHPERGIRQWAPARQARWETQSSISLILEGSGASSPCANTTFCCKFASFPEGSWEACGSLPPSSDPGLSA
Experiment: FACS competition, hCD112R mFc on CHO CD112 cells
Give the value, in units of µg/mL, as a plain number.

INSERT INTO results (binder, parameter, test_result) VALUES
  ('Hu7 (antibody, IgG4, V domains shown, humanized IgG4; also called Hu-07) VH: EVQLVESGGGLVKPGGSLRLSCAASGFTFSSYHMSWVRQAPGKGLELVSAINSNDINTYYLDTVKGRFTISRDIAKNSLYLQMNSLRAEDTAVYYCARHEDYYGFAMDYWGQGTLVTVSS VL: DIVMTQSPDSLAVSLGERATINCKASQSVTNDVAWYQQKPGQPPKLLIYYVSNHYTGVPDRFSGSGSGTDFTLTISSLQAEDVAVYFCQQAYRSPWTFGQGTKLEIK', 'IC50', 5.06),
  ('Hu23 (antibody, IgG4, V domains shown, humanized IgG4) VH: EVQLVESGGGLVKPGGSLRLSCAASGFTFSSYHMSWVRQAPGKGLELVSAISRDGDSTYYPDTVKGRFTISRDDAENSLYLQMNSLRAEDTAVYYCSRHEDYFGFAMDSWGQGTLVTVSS VL: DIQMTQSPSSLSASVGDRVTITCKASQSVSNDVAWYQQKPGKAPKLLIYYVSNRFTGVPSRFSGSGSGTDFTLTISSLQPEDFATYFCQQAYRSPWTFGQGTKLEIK', 'IC50', 2.53),
  ('Hu15 (antibody, IgG4, V domains shown, humanized IgG4) VH: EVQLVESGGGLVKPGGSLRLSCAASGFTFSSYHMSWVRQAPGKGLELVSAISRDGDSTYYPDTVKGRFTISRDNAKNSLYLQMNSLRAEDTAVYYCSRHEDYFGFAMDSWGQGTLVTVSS VL: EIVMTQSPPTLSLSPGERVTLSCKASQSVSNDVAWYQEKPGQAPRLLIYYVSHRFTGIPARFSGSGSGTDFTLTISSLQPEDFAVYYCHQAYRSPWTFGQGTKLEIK', 'IC50', 3.29);

Next, consider the following binder.
Which IC50 is reported for this binder? Hu58 (antibody, IgG4, V domains shown, humanized IgG4) VH: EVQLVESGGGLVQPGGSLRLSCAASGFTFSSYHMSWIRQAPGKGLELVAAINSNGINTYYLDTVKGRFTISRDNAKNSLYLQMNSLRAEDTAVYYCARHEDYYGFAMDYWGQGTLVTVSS VL: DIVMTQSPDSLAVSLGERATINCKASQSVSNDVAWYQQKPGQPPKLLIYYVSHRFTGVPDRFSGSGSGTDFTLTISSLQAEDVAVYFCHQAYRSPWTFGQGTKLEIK
3.25
